Biological target: CRTH2 receptor (Homo sapiens)
Sequence (Q9Y5Y4 whole entry): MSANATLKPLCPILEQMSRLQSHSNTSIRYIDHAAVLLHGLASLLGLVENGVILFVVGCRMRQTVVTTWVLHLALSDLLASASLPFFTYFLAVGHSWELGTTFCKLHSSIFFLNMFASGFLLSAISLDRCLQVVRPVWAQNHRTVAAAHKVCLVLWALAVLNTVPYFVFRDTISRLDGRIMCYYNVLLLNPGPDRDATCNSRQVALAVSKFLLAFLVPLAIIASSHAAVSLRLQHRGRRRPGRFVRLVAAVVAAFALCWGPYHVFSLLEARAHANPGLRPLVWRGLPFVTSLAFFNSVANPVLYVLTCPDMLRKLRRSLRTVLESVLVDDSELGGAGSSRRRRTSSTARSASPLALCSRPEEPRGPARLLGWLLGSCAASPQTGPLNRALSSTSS
Test: PathHunter CHO-K1 CRTH2 β-arrestin assay (DiscoverX), antagonism of PGD2
Conditions: PathHunter CHO-K1 CRTH2 β-arrestin cells; compound 30 min, then EC80 agonist (PGD2) 90 min, 37° C.; chemiluminescent signal
Quantity: IC50

[in] IC50 for O=C(O)C1CCc2c(Cc3ccc4c(c3)C(F)(F)CCS4(=O)=O)c3cc(F)ccc3n2C1 (stereo not shown) [Example 43] ?
[out] > 1000 nM

[in] Quick one: CS(=O)(=O)c1ccc(Cc2c3n(c4ccc(Cl)cc24)CC(C(=O)O)CC3)c(C(F)(F)F)c1 (single isomer, unassigned) [Example 22 peak1]
[out] < 100 nM

[in] Follow-up entry: CS(=O)(=O)c1ccc(Cc2c3n(c4ccccc24)CC(CC(=O)O)CC3)c(C(F)(F)F)c1 (stereo not shown) [Example 15]
[out] > 1000 nM

[in] // next record CS(=O)(=O)c1ccc(Cc2c3n(c4ccc(Cl)cc24)CC(C(=O)O)CC3)c(F)c1 (stereo not shown) [Example 23]
[out] 100 to 1000 nM
